Target: Hypoxanthine-guanine phosphoribosyltransferase (Homo sapiens, UniProt P00492)
Sequence (P00492 whole entry): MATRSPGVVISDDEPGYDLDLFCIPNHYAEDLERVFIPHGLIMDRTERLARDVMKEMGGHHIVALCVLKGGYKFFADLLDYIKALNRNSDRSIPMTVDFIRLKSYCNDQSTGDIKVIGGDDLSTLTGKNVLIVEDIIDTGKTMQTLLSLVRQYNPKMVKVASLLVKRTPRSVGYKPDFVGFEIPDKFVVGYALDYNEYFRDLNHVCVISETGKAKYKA
Test: Inhibition of human HGPRT using PRib-PP as the substrate by spectrophotometric method
Property Name: pKi
// field semantics: pKi = negative decimal log of concentration (mol/L)

>>> reported_value("O=c1[nH]cnc2c1ccn2CC(COCCP(=O)(O)O)COCP(=O)(O)O (stereo not drawn)")
5.34
>>> reported_value("O=c1[nH]cnc2c1nc(Br)n2CC(COCCP(=O)(O)O)COCP(=O)(O)O (stereo not drawn)")
5.60

Now for another entry.
**Q:** Which measured pKi value corresponds to O=c1[nH]cnc2c1ncn2CC(COCCP(=O)(O)O)OCCP(=O)(O)O (stereo not drawn) ?
**A:** 6.15
